# Target entity: rhodesain (Trypanosoma brucei rhodesiense, UniProt Q95PM0)
# Sequence (Q95PM0 entry or part of it): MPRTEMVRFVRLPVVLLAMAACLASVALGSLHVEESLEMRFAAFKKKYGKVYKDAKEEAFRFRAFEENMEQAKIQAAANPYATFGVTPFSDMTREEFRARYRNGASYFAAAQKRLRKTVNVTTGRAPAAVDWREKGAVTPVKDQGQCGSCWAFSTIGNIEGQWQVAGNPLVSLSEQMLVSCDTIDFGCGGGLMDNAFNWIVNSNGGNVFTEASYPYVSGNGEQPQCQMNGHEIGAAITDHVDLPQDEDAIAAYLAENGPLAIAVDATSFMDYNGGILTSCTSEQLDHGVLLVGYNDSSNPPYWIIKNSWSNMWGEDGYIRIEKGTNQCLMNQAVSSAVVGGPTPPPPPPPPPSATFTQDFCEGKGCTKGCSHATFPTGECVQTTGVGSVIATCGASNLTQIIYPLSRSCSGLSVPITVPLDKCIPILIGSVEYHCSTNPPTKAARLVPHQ
# Measurement notes: Fluorometric inhibition assay, rhodesain
# Type: biochemical
Metric name: activity against rhodesain, in words

                                   compound                             target_entity     reported_value
0  O=C(N[C@@H](Cc1ccccc1)C(=O)N[C@@H](CCc1ccccc1)C(=O)N[C@H]1CN(c2ccccc2)C1=O)OCc1ccccc1  rhodesain (Trypanosoma brucei rhodesiense, UniProt Q95PM0)  inactive at 20 µM
1  CC(=O)NCC(=O)NC(C(=O)N[C@@H](C)C(=O)N[C@H](/C=C(\F)S(=O)(=O)c1ccccc1)CCCNC(=N)N)[C@H](C)O (some centres unmarked)  rhodesain (Trypanosoma brucei rhodesiense, UniProt Q95PM0)           inactive
2  CC(=O)NCC(=O)NC(C(=O)N[C@@H](C)C(=O)N[C@H](/C=C/S(=O)(=O)c1ccccc1)CCCNC(=N)N)[C@H](C)O (some centres unmarked)  rhodesain (Trypanosoma brucei rhodesiense, UniProt Q95PM0)           inactive
3  O=C(N[C@@H](Cc1ccccc1)C(=O)N[C@@H](CCc1ccccc1)C(=O)c1nc2ccccc2s1)OCc1ccccc1  rhodesain (Trypanosoma brucei rhodesiense, UniProt Q95PM0)  inactive at 20 µM

----------
This section presents molecules with their documented Ki values.
# Target entity: human cathepsin S (CatS) (Homo sapiens)
# Construct: purchased Sigma Aldrich
# Measurement notes: Fluorometric inhibition assay, cathepsin S
# Format: biochemical
# Cond: pKi, Cathepsin S inhibition
Reply numerically in nM, unit not repeated.

Solved cases (4 shown):
>>> df
                                   molecule  metric_name  reported_value
0  O=C(N[C@@H](Cc1ccccc1)C(=O)N[C@H](/C=C(\F)S(=O)(=O)c1ccccc1)CCc1ccccc1)OCc1ccccc1           Ki            1000
1  CC(C)C[C@@H](/C=C(\F)S(=O)(=O)c1ccccc1)NC(=O)[C@H](Cc1ccccc1)NC(=O)c1cnccn1           Ki            1000
2  O=C(NC(COCc1ccccc1)C(=O)c1nc2ccccc2s1)C(CC1CCCCC1)NC(=O)N1CCOCC1 (centres unmarked)           Ki             316
3  O=C(N[C@@H](Cc1ccccc1)C(=O)N[C@H](/C=C/S(=O)(=O)c1ccccc1)CCc1ccccc1)OCc1ccccc1           Ki               1

// switching to the query molecule
*Q* Looking for the measured Ki of O=C(NC(C=CS(=O)(=O)c1ccccc1)COCc1ccccc1)C(CC1CCCCC1)NC(=O)N1CCOCC1 (centres unmarked) , can you help?
*A* 3.16

----------
# Measurement notes: Reactivity test of warhead probes with PhEtSH without base (NMR/LC-MS)
# Format: physicochemical
# Cond: non-basic conditions, DMSO-d6, up to 240 min
Metric name: reactivity with PhEtSH (protonated thiol), in words

In [3]: df
Out[3]:
                                   compound    reported_value
0      CC(C)C[C@@H]([13C]#N)NC(=O)OC(C)(C)C  did indeed react
1  CC(C)CC(NC(=O)OC(C)(C)C)[13C](=O)c1nc2ccccc2s1 (stereo not shown)  did indeed react

----------
# Target entity: urokinase-type plasminogen activator (uPA) (Homo sapiens, UniProt P00749)
# Construct: purchased Sigma Aldrich
# Measurement notes: Fluorometric inhibition assay, uPA
# Format: biochemical
# Cond: Table S1; a) calculated from IC50 with Cheng–Prusoff; n.a. = not active (<80% inhibition at 20 µM); read-out: Ki, uPA
Metric name: Ki (µM)
Reply numerically in µM, unit not repeated.

*Q* Looking for the measured Ki of CC(=O)NCC(=O)NC(C(=O)N[C@@H](C)C(=O)N[C@@H](CCCNC(=N)N)C(=O)c1nc2ccccc2s1)[C@H](C)O (stereo partly shown) , can you help?
*A* 0.141

----------
# Target entity: rhodesain (Trypanosoma brucei rhodesiense)
# Measurement notes: Fluorometric inhibition assay, rhodesain
# Type: biochemical
# Cond: read-out: kinact, Rhodesain
Metric name: kinact (s⁻¹)
Reply numerically in s⁻¹, unit not repeated.

In [3]: df
Out[3]:
                                   molecule  reported_value
0  O=C(N[C@@H](Cc1ccccc1)C(=O)N[C@H](/C=C/S(=O)(=O)c1ccccc1)CCc1ccccc1)OCc1ccccc1           0.005

*Q* Looking for the measured kinact of CCOC(=O)/C=C/C(=O)[C@H](CCc1ccccc1)NC(=O)[C@H](Cc1ccccc1)NC(=O)OCc1ccccc1 , can you help?
*A* 0.008

*Q* Let us now turn to CCOC(=O)C=CC(=O)C(COCc1ccccc1)NC(=O)C(CC1CCCCC1)NC(=O)N1CCOCC1 (stereo not drawn)
*A* 0.003

*Q* Let us now turn to O=C(NC(C=CS(=O)(=O)c1ccccc1)COCc1ccccc1)C(CC1CCCCC1)NC(=O)N1CCOCC1 (stereo not drawn)
*A* 0.006

*Q* Let us now turn to CC(C)C[C@@H](/C=C/S(=O)(=O)c1ccccc1)NC(=O)[C@H](Cc1ccccc1)NC(=O)c1cnccn1
*A* 0.019

*Q* Let us now turn to CCOC(=O)/C=C/C(=O)[C@H](CC(C)C)NC(=O)[C@H](Cc1ccccc1)NC(=O)c1cnccn1
*A* 0.006

----------
# Target entity: human cathepsin S (CatS) (Homo sapiens, UniProt P25774)
# Construct: purchased Sigma Aldrich
# Sequence (P25774 115-331): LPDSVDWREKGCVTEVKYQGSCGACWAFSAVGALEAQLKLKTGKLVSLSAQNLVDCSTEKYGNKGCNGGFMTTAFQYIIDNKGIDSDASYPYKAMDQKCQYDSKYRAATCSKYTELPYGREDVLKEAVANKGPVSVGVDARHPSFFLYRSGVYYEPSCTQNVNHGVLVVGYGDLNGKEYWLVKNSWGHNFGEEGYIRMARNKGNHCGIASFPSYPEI
# Measurement notes: Fluorometric inhibition assay, cathepsin S
# Assay type: biochemical
# Cond: read-out: kinact, CatS
Assign fulfilled whenever kinact does not fall below 0.002 s⁻¹; assign not fulfilled whenever it does.

*Q* Identify whether the reported kinact of the following molecule is 0.002 s⁻¹ or greater: O=C(N[C@@H](Cc1ccccc1)C(=O)N[C@H](/C=C/S(=O)(=O)c1ccccc1)CCc1ccccc1)OCc1ccccc1
*A* fulfilled

*Q* Let us now turn to O=C(NC(C=CS(=O)(=O)c1ccccc1)COCc1ccccc1)C(CC1CCCCC1)NC(=O)N1CCOCC1 (stereo not drawn)
*A* fulfilled

*Q* Let us now turn to CCOC(=O)/C=C/C(=O)[C@H](CCc1ccccc1)NC(=O)[C@H](Cc1ccccc1)NC(=O)OCc1ccccc1
*A* fulfilled

*Q* Let us now turn to O=C(NC1CN(c2ccccc2)C1=O)C(COCc1ccccc1)NC(=O)C(CC1CCCCC1)NC(=O)N1CCOCC1 (stereo not drawn)
*A* not fulfilled

*Q* Let us now turn to CCOC(=O)C=CC(=O)C(COCc1ccccc1)NC(=O)C(CC1CCCCC1)NC(=O)N1CCOCC1 (stereo not drawn)
*A* fulfilled

*Q* Let us now turn to CC(C)C[C@@H](/C=C/S(=O)(=O)c1ccccc1)NC(=O)[C@H](Cc1ccccc1)NC(=O)c1cnccn1
*A* fulfilled

----------
# Target entity: rhodesain (Trypanosoma brucei rhodesiense, UniProt Q95PM0)
# Measurement notes: Fluorometric inhibition assay, rhodesain
# Type: biochemical
# Cond: Ki, Rhodesain
This section presents compounds with their documented pKi values.
For clarity, pKi is expressed as the negative log10 of concentration in mol/L.

Solved cases (3 shown):
                                   compound  reported_value
0  CCOC(=O)/C=C/C(=O)[C@H](CCc1ccccc1)NC(=O)[C@H](Cc1ccccc1)NC(=O)OCc1ccccc1            7.10
1  CC(C)C[C@@H](/C=C/S(=O)(=O)c1ccccc1)NC(=O)[C@H](Cc1ccccc1)NC(=O)c1cnccn1            6.48
2  O=C(N[C@@H](Cc1ccccc1)C(=O)N[C@H](/C=C/[N+](=O)[O-])CCc1ccccc1)OCc1ccccc1           10.22

// switching to the query compound
*Q* Given the entry O=C(NC(C=CS(=O)(=O)c1ccccc1)COCc1ccccc1)C(CC1CCCCC1)NC(=O)N1CCOCC1 (stereo not shown) , what pKi was observed with rhodesain (Trypanosoma brucei rhodesiense, UniProt Q95PM0)?
*A* 7.66

----------
# Target entity: human cathepsin S (CatS) (Homo sapiens)
# Construct: purchased Sigma Aldrich
# Measurement notes: Fluorometric inhibition assay, cathepsin S
# Type: biochemical
# Cond: Ki, CatS
Metric name: pKi
For clarity, pKi is expressed as the negative log10 of concentration in mol/L.

>>> print(df.to_string())
                                   compound  reported_value
0  O=C(NC1CN(c2ccccc2)C1=O)C(COCc1ccccc1)NC(=O)C(CC1CCCCC1)NC(=O)N1CCOCC1 (stereo not drawn) [compound 45]            6.07
1  CC(C)CC(C#N)NC(=O)C(Cc1ccccc1)NC(=O)c1cnccn1 (stereo not drawn) [compound 74]            6.62
2  CC(C)C[C@@H](/C=C(\F)S(=O)(=O)c1ccccc1)NC(=O)[C@H](Cc1ccccc1)NC(=O)c1cnccn1 [compound 55]            6.03
3  O=C(NC(C=C(F)S(=O)(=O)c1ccccc1)COCc1ccccc1)C(CC1CCCCC1)NC(=O)N1CCOCC1 (stereo not drawn) [compound 36]            5.49
4  O=C(NC(C=C[N+](=O)[O-])COCc1ccccc1)C(CC1CCCCC1)NC(=O)N1CCOCC1 (stereo not drawn) [compound 49]            7.92
5  CC(C)C[C@@H](C=C[N+](=O)[O-])NC(=O)[C@H](Cc1ccccc1)NC(=O)c1cnccn1 [compound 59]            6.21
6  O=C(NC(COCc1ccccc1)C(=O)c1nc2ccccc2s1)C(CC1CCCCC1)NC(=O)N1CCOCC1 (stereo not drawn) [compound 42]            6.63
7  N#C[C@H](CCc1ccccc1)NC(=O)[C@H](Cc1ccccc1)NC(=O)OCc1ccccc1 [compound 25]            6.87

*Q* Looking for the measured pKi of O=C(N[C@@H](Cc1ccccc1)C(=O)N[C@H](/C=C(\F)S(=O)(=O)c1ccccc1)CCc1ccccc1)OCc1ccccc1 [compound 17] , can you help?
*A* 6.02
